measured.target: ALK2R206H (mutant ALK2, N-terminally tagged with GST) (Homo sapiens, UniProt Q04771, R206H)
Construct: purchased Carna Bioscience or ThermoFisher 09-148 or PV6232
procedure.summary: ALK binding assay (LANTHASCREEN TR-FRET competitive binding, displacement of Kinase Tracer 178)
experimental.context: read-out: Binding Assay (IC50 class)
result.type: IC50

1. CCOC(=O)N1CCN(c2ccnc3[nH]c(-c4ccc([C@]5(O)CCOC5)cc4)cc23)CC1; ≤ 10 nM
2. CS(=O)(=O)N1CCc2nc(-c3cc4c(N5CCN(C(=O)OC6COC6)CC5)ccnc4[nH]3)sc2C1; ≤ 10 nM
3. CCC(C)C(=O)N1CCN(c2ccnc3[nH]c(-c4cnn(C)c4)cc23)CC1 (stereo not shown); 10 to 50 nM

Attention now shifts to the item below.
So what does the record say about IC50 for CCOC(=O)N1CCN(c2ccnc3[nH]c(-c4ccc([C@@]5(O)CCOC5)cc4)cc23)CC1 ? ≤ 10 nM

* * *

The molecules listed here are annotated with their IC50.
measured.target: human ALK2 R206H (Homo sapiens, UniProt Q04771, R206H)
procedure.summary: Cell-based ALK2-R206H cell activity assay (Smad1-Ser463/Ser465 phosphorylation by AlphaLISA in HEK293-ALK2-R206H cells)
experimental.context: phospho-Smad1 AlphaLISA, read-out: Cell Line (Cell Assay, IC50 class)

1. Cc1nc(-c2cc3c(N4CCN(C(=O)OCC(F)F)CC4)ccnc3[nH]2)cs1 [Compound 212]; ≤ 100 nM

GET /values?readout=IC50&system=human ALK2 R206H (Homo sapiens, UniProt Q04771, R206H)&item= Cc1ncsc1-c1cc2c(N3CCN(C(=O)OC4COC4)CC3)ccnc2[nH]1 [Compound 175] 100 to 500 nM

Here is the next molecule: CCOC(=O)N1CCN(c2ccnc3[nH]c(-c4cc(C)n(C)n4)cc23)CC1 [Compound 39] 100 to 500 nM

* * *

The compounds listed here are annotated with their IC50.
measured.target: human ALK2 R206H (Homo sapiens, UniProt Q04771, R206H)
procedure.summary: Cell-based ALK2-R206H cell activity assay (Smad1-Ser463/Ser465 phosphorylation by AlphaLISA in HEK293-ALK2-R206H cells)
experimental.context: phospho-Smad1 AlphaLISA, read-out: Cell Line (Cell Assay, IC50 class)

1) CCC(C)OC(=O)N1CCN(c2ccnc3[nH]c(-c4cnn(C)c4)cc23)CC1 (centres unmarked); 0.1 to 0.5 µM
2) CC(C)n1cnc(-c2[nH]c3nccc(N4CCN(C(=O)OC5COC5)CC4)c3c2C#N)c1; ≤ 0.1 µM
3) CC(C)(C#N)c1ccc(-c2cc3c(N4CCN(C(=O)C5CC5)CC4)ccnc3[nH]2)cc1; ≤ 0.1 µM
4) Cc1csc(-c2cc3c(N4CCN(C(=O)OC5COC5)CC4)ccnc3[nH]2)n1; 0.1 to 0.5 µM
5) O=C(O[C@H]1C[C@H](F)C1)N1CCN(c2ccnc3[nH]c(-c4ccc(C5(O)CCOCC5)cn4)cc23)CC1; ≤ 0.1 µM
6) Cn1cc(-c2cc3c(N4CCN(C(=O)O[C@H]5COC[C@@H]5F)CC4)ccnc3[nH]2)cn1; 0.1 to 0.5 µM
7) Cn1cc(-c2[nH]c3nccc(N4CCN(C(=O)OCC(F)F)CC4)c3c2C#N)cn1; ≤ 0.1 µM

Attention now shifts to the item below.
So what does the record say about IC50 for CC(C)(C#N)n1cc(-c2cc3c(N4CCN(C(=O)OC5COC5)CC4)ccnc3[nH]2)cn1 ? 0.1 to 0.5 µM

* * *

measured.target: ALK2R206H (mutant ALK2, N-terminally tagged with GST) (Homo sapiens, UniProt Q04771, R206H)
procedure.summary: ALK binding assay (LANTHASCREEN TR-FRET competitive binding, displacement of Kinase Tracer 178)
experimental.context: read-out: Binding Assay (IC50 class)
The molecules listed here are annotated with their IC50.

Worked examples, 3 molecules total:
1) CCOC(=O)N1CCN(c2ccnc3[nH]c(-c4cnn(C)c4)c(Cl)c23)CC1; ≤ 10 nM
2) CCOC(=O)N1CCN(c2ccnc3[nH]c(-c4cnn(C)c4)c(CC)c23)CC1; ≤ 10 nM
3) O=C(C1CC1)N1CCN(c2ccnc3[nH]c(-c4ccc(Cl)cc4)cc23)CC1; 10 to 50 nM

Attention now shifts to the item below.
So what does the record say about IC50 for Cn1cc(-c2cc3c(N4CCN(C(=O)[C@@H]5C[C@H]5F)CC4)ccnc3[nH]2)cn1 ? ≤ 10 nM

* * *

measured.target: human ALK2 R206H (Homo sapiens, UniProt Q04771, R206H)
Sequence (Q04771 21-509 R206H): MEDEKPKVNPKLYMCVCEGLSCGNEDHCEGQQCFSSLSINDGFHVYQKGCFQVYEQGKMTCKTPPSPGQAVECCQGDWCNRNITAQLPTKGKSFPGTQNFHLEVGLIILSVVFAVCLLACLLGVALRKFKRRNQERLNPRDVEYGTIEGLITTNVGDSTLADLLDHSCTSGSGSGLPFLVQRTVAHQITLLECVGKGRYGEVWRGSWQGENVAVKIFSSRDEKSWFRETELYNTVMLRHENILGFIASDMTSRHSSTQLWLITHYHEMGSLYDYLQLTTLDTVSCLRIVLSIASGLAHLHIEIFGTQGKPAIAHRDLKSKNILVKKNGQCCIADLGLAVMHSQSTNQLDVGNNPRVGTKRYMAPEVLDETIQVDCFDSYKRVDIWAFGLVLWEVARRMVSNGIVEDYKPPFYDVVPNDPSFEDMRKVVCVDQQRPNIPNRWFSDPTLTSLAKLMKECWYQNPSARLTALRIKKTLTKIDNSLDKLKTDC
procedure.summary: Cell-based ALK2-R206H cell activity assay (Smad1-Ser463/Ser465 phosphorylation by AlphaLISA in HEK293-ALK2-R206H cells)
experimental.context: phospho-Smad1 AlphaLISA, read-out: Cell Line (Cell Assay, IC50 class)
pIC50: −log10 of the molar value.
The molecules listed here are annotated with their pIC50.

1. CC(C)n1cc(-c2cc3c(N4CCN(C(=O)C5CC5)CC4)ccnc3[nH]2)cn1; ≥ 7.00
2. O=C(C1CC1)N1CCN(c2ccnc3[nH]c(-c4ccc(C5CCOC5)cc4)cc23)CC1 (stereo not shown); ≥ 7.00
3. Cn1cc(-c2cc3c(N4CCN(C(=O)CC5CCCC5)CC4)ccnc3[nH]2)cn1; 6.30 to 7.00

So what does the record say about pIC50 for CCC(C)C(=O)N1CCN(c2ccnc3[nH]c(-c4cnn(C)c4)cc23)CC1 (stereo not shown) ? 6.30 to 7.00

* * *

The molecules listed here are annotated with their IC50.
measured.target: ALK2R206H (mutant ALK2, N-terminally tagged with GST) (Homo sapiens, UniProt Q04771, R206H)
Sequence (Q04771 21-509 R206H): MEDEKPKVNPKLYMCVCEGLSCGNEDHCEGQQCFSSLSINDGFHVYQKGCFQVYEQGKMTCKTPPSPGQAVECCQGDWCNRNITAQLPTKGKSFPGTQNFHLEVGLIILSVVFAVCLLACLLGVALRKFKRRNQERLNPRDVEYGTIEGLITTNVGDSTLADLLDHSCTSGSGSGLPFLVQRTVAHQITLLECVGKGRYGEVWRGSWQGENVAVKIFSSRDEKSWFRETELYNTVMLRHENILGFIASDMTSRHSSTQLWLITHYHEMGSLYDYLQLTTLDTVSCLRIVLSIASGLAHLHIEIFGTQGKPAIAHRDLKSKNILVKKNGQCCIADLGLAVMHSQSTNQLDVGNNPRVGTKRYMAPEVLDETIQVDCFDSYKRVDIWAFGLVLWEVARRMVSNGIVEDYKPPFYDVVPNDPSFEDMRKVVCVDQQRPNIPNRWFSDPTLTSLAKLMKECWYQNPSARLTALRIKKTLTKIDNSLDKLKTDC
procedure.summary: ALK binding assay (LANTHASCREEN TR-FRET competitive binding, displacement of Kinase Tracer 178)
experimental.context: read-out: Binding Assay (IC50 class)

Worked examples, 5 molecules total:
1. CCc1csc(-c2cc3c(N4CCN(C(=O)OC5COC5)CC4)ccnc3[nH]2)n1 [Compound 251]; ≤ 10 nM
2. N#Cc1c(-c2cn(C(F)F)cn2)[nH]c2nccc(N3CCN(C(=O)OC4COC4)CC3)c12 [Compound 375]; ≤ 10 nM
3. Cc1nc(-c2cc3c(N4CCN(C(=O)OC5COC5)CC4)ccnc3[nH]2)co1 [Compound 102]; ≤ 10 nM
4. O=C(OC1COC1)N1CCN(c2ccnc3[nH]c(-c4cnn(C5CC5)c4)cc23)CC1 [Compound 219]; ≤ 10 nM
5. CCCOc1ccc(-c2cc3c(N4CCN(C(=O)C5CC5)CC4)ccnc3[nH]2)cc1 [Compound 196]; 10 to 50 nM

So what does the record say about IC50 for Cc1c(-c2cc3c(N4CCN(C(=O)C5CC5)CC4)ccnc3[nH]2)cnn1C [Compound 22] ? 10 to 50 nM

Here is the next molecule: CCn1cnc(-c2[nH]c3nccc(N4CCN(C(=O)OC5COC5)CC4)c3c2C#N)c1 [Compound 290] ≤ 10 nM

Here is the next molecule: O=C(OC1COC1)N1CCN(c2ccnc3[nH]c(-c4cccnc4)cc23)CC1 [Compound 67] ≤ 10 nM

Data credit: patent US11236086B2
